tested-target: T1, human CD22-ECD-His protein (human, UniProt P20273 20-687)
T1 construct: Recombinant, from HEK293E cells; also called hCD22-ECD-His; human CD22-His protein; not shown: His tag
T1 sequence: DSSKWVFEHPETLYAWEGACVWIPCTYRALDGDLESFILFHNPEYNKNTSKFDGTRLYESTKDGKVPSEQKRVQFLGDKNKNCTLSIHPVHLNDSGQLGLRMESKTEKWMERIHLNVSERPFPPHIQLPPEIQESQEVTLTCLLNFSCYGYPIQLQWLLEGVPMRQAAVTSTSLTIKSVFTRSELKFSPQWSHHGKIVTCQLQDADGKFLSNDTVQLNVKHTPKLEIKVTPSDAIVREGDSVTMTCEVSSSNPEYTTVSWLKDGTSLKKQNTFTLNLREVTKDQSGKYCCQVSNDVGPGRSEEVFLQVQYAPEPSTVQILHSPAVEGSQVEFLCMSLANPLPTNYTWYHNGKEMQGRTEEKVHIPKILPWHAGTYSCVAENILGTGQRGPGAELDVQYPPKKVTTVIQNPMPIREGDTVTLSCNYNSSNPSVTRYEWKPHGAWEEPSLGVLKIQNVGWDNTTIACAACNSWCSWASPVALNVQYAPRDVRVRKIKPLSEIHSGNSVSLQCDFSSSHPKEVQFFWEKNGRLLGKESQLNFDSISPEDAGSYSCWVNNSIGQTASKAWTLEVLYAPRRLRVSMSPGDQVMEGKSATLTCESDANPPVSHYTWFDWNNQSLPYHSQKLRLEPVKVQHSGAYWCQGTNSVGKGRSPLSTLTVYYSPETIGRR
protocol-text: SPR (Biacore), antibody captured on Protein A chip, CD22-ECD-His in solution
reported-endpoint: kon (M⁻¹ s⁻¹)

INSERT INTO results (binder, value_measured) VALUES
  ('F1.257.3 (antibody, human IgG1, kappa, V domains shown, Chimeric IgG1 kappa) VH: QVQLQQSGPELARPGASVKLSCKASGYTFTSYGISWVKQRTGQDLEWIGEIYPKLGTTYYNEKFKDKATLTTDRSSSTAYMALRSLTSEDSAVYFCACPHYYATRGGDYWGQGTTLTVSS VL: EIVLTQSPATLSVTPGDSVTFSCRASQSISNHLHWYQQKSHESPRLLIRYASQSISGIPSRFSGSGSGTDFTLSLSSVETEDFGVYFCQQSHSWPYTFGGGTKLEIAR', 270000),
  ('F2.70.2 (antibody, human IgG1, lambda, V domains shown, Chimeric IgG1 lambda) VH: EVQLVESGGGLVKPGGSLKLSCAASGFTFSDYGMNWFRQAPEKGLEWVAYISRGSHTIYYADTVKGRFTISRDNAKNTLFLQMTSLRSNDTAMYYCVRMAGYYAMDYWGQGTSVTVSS VL: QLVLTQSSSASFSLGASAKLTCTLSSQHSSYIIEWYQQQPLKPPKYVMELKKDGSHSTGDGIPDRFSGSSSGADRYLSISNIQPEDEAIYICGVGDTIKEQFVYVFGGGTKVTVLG', 69500);
